Read-out: Cytochrome P450 3A4 (Homo sapiens) (UniProt P08684)
Sequence (P08684 whole entry, looked up): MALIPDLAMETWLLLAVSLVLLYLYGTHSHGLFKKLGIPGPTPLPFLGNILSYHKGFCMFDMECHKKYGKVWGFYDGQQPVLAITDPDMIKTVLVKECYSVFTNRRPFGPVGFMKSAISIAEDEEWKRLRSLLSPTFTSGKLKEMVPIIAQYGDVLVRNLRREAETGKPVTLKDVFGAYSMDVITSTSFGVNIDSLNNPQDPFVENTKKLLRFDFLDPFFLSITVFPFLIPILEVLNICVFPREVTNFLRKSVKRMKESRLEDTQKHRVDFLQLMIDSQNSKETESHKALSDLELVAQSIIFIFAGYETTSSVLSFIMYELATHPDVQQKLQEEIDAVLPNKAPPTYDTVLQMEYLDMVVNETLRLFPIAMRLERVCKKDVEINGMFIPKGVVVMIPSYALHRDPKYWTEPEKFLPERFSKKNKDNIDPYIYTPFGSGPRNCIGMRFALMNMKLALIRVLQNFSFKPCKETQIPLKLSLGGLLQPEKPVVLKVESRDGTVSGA
assay summary: LTEA_HepaRG_CYP3A4: Life Technologies and Expression Analysis (LTEA) Assay for CYP3A4 using HepaRG (AID 2283487)
settings: mRNA level, 48 h; actives raise or lower the signal
Calls of active or inactive are those of the source. How the source made its calls: active means hit-call score of the fitted dose curve at least 0.9, where 1 is the maximum; inactive means score below 0.9.
Possible outcomes: 1 = active, -1 = inactive

>>> label("COC(=O)c1ccccc1C(=O)OC")
-1
>>> label("CNC(=S)S")
-1
>>> label("COC(=O)C(C)Oc1ccc(Oc2ccc(Cl)cc2Cl)cc1 (configuration not stated)")
-1
>>> label("CC(Oc1ccc(Cl)cc1Cl)C(=O)O (configuration not stated)")
-1
>>> label("COc1nc(NC(C)C)nc(NC(C)C)n1")
1
>>> label("CC1COC(Cn2cncn2)(c2ccc(Oc3ccc(Cl)cc3)cc2Cl)O1 (configuration not stated)")
1
>>> label("CON(C)C(=O)Nc1ccc(Cl)c(Cl)c1")
1
>>> label("CS/C(C)=N/OC(=O)N(C)SN(C)C(=O)O/N=C(\\C)SC")
-1
>>> label("CC(C)(C)c1ccc(CSc2cnn(C(C)(C)C)c(=O)c2Cl)cc1")
1
>>> label("O=C(O)COc1nc(Cl)c(Cl)cc1Cl")
-1
>>> label("CNC(=O)ON=CC(C)(C)SC")
-1
>>> label("CCCCNC(=O)OCC#CI")
-1

* * *

assay system: Estrogen receptor (Homo sapiens) (UniProt P03372)
Sequence (P03372 whole entry, looked up): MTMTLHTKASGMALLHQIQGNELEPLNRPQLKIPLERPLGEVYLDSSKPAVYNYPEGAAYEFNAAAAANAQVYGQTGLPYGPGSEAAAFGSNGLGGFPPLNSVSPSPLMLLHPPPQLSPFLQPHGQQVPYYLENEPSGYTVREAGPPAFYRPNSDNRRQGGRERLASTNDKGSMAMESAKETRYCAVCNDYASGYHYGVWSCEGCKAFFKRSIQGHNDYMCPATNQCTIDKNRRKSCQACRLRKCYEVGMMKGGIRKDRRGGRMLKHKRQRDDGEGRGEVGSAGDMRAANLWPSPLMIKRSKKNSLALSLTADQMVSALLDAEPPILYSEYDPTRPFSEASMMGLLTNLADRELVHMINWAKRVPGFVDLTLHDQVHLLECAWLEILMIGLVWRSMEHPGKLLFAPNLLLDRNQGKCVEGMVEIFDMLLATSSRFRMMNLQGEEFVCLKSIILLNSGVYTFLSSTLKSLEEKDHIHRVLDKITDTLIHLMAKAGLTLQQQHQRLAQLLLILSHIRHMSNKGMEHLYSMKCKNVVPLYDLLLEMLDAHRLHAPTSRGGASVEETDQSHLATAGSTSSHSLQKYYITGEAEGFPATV
assay summary: ATG_hERa_XSP1: Attagene TRANS-FACTORIAL Multi-Species (XSP1) HepG2 Assay for human Estrogen Receptor (ESR1) (AID 2283780)
Records with an inconclusive call do not appear. Calls of active or inactive are those of the source. How the source made its calls: active means hit-call score of the fitted dose curve at least 0.9, where 1 is the maximum; inconclusive means response in the unintended direction; inactive means score below 0.9.
assay readout: AC50

>>> result("COC(=O)N(OC)c1ccccc1COc1ccn(-c2ccc(Cl)cc2)n1")
"inactive"
>>> result("COc1ccc(C(c2ccc(OC)cc2)C(Cl)(Cl)Cl)cc1")
"0.821 µM (active)"
>>> result("C#CCOS(=O)OC1CCCCC1Oc1ccc(C(C)(C)C)cc1 (stereo not given)")
"5.29 µM (active)"
>>> result("CC(C)(C)c1ccc(CSc2cnn(C(C)(C)C)c(=O)c2Cl)cc1")
"inactive"
>>> result("C=CC1(C)OC(=O)N(c2cc(Cl)cc(Cl)c2)C1=O (stereo not given)")
"100 µM (active)"

* * *

assay summary: ATG_VDRE_CIS: Attagene CIS-FACTORIAL HepG2 Assay for human Vitamin D Receptor Element (VDRE) (AID 2282968)
settings: HepG2 VDRE cis-reporter transcription, actives raise or lower the signal
Calls of active or inactive are those of the source. Rule for the calls: active = hit-call score of the fitted dose curve at least 0.9, where 1 is the maximum; inactive = score below 0.9.
Possible outcomes: active, inactive

>>> label("C=CCC1=C(C)[C@@H](OC(=O)[C@@H]2[C@@H](C=C(C)C)C2(C)C)CC1=O")
"active"
>>> label("COP(=S)(OC)Oc1nc(Cl)c(Cl)cc1Cl")
"active"
>>> label("O=C(Nc1ccccc1)Nc1ccnc(Cl)c1")
"active"
>>> label("CCCCNC(=O)n1c(NC(=O)OC)nc2ccccc21")
"inactive"
>>> label("CCNc1nc(Cl)nc(NC(C)C)n1")
"inactive"
>>> label("COc1nc(NC(C)C)nc(NC(C)C)n1")
"inactive"
>>> label("CC(Oc1ccc(Cl)cc1Cl)C(=O)O (stereo not given)")
"inactive"
>>> label("CN(C)C(=S)SSC(=S)N(C)C")
"inactive"
>>> label("CCON=C(CC)C1=C(O)CC(c2c(C)cc(C)cc2C)CC1=O (stereo not given)")
"inactive"
>>> label("CCCCC(CC)COC(=O)c1ccccc1C(=O)OCC(CC)CCCC (stereo not given)")
"inactive"
>>> label("CC1=C(C(=O)Nc2ccccc2)SCCO1")
"inactive"
>>> label("COC(=O)c1ccccc1C(=O)OC")
"inactive"
>>> label("CC(C)Oc1cc(-n2nc(C(C)(C)C)oc2=O)c(Cl)cc1Cl")
"active"
>>> label("COc1nc(C)nc(NC(=O)NS(=O)(=O)c2ccccc2CCC(F)(F)F)n1")
"inactive"
>>> label("O=C(O)COc1nc(Cl)c(Cl)cc1Cl")
"inactive"
>>> label("Cc1c(F)c(F)c(COC(=O)C2C(/C=C(\\Cl)C(F)(F)F)C2(C)C)c(F)c1F (stereo not given)")
"active"
>>> label("CCOP(=S)(OCC)SCn1c(=O)oc2cc(Cl)ccc21")
"active"
>>> label("Cc1cc(Cl)ccc1OCC(=O)O")
"inactive"
>>> label("N#CC(CCc1ccc(Cl)cc1)(Cn1cncn1)c1ccccc1 (stereo not given)")
"inactive"
>>> label("Fc1ccc(Oc2ccnc3cc(Cl)cc(Cl)c23)cc1")
"inactive"
